Test name: Log P by HPLC on reversed phase columns (EEC directive 79/831 Annex V.A8; methods [a], [b], [c])
Assay type: physicochemical
Experimental readout: LogP

Compound | LogP
CC(O)(Cn1cncc1C#N)c1cnc(Oc2ccc(C(F)F)cc2)cc1C(F)(F)F (stereo not shown) [I-341] | 2.80^[a]

Incoming: Quick check: LogP of N#Cc1cncn1CC(O)(c1cc(F)ccc1Cl)C1(Cl)CC1 (stereo not shown) ?
Outgoing: 2.30^[a]

Incoming: Would you mind doing N#Cc1cncn1CC(O)(C#Cc1cc(F)cc(F)c1)C1(Cl)CC1 (stereo not shown) as well?
Outgoing: 2.59^[a]

Incoming: Do the same for Cc1cc(C(O)(Cn2cncc2C#N)C2(F)CC2)c(F)cc1Cl (stereo not shown) please
Outgoing: 2.66^[a]

Incoming: Also need CC(O)(Cn1cncc1Br)c1ccc(Oc2ccc(Cl)cc2)cc1Br (stereo not shown) , thanks.
Outgoing: 2.80^[a]

Incoming: What do you get for N#Cc1cncn1CC(O)(c1cccc(Cl)c1F)C1(Cl)CC1 (stereo not shown) ?
Outgoing: 2.40^[a]

Incoming: Input C[Si](C)(C)C=CC(O)(Cn1cncc1C(F)(F)F)C1(Cl)CC1 (stereo not shown)
Outgoing: 3.85^[a]

Incoming: Lookup N#Cc1cncn1CC(O)(c1c(F)cc(Cl)cc1F)C1(F)CC1 (stereo not shown)
Outgoing: 2.36^[a]

Incoming: Likewise for N#Cc1cncn1CC(O)c1cnc(Oc2ccc(OC(F)(F)F)cc2)cc1C(F)(F)F (stereo not shown) ?
Outgoing: 3.35^[a]

Incoming: // next record OC(Cn1cncc1F)c1cnc(Oc2ccc(C(F)(F)F)cc2)cc1Br (stereo not shown)
Outgoing: 1.94^[a]
